Test: Toxicity (acute, oral, mouse)
Assay type: in vivo
Conditions: in vivo; acute, oral, mouse
parameter: LD50 at 504 h

query: Which LD50 at 504 h is reported for this molecule? C=C=CC(N)(Cc1cccc(O)c1)C(=O)O (stereo not shown)
result: > 500 mg/kg
